Test system: AGS (G12D)
Test: Cell proliferation assay (CellTiter-Glo, 72 hours), AGS
Format: cell-based
Conditions: 72 h, 384-well, CellTiter-Glo 2.0
# key: entry, value: log10(IC50)
Log scale reminder: IC50 in nM, then log10 taken.

Item under review: C#Cc1c(F)ccc2cc(O)cc(-c3nc4c5c(nc(OC[C@@]67CCCN6C[C@H](F)C7)nc5c3F)N(C)[C@@H](C)CO4)c12 . Reported log10(IC50)?
1.45

For the compound shown here, C#Cc1c(F)ccc2cc(O)cc(-c3nc4c5c(nc(OC[C@@]67CCCN6C[C@H](F)C7)nc5c3F)N(CC(F)F)[C@@H](C)CO4)c12 , give the reported log10(IC50).
1.16

Item under review: C#Cc1c(F)ccc2cc(O)cc(-c3nc4c5c(nc(OC[C@@]67CCCN6C[C@H](O)C7)nc5c3F)N3CCCC[C@H]3CO4)c12 . Reported log10(IC50)?
2.59

Look up log10(IC50) for this compound: CCc1c(F)ccc2cc(O)cc(-c3nc4c5c(nc(OC[C@@]67CCCN6C[C@H](F)C7)nc5c3F)N(C)[C@@H](CC)CO4)c12
1.94

# query: log10(IC50) of entry C#Cc1c(F)ccc2cc(O)cc(-c3nc4c5c(nc(OC[C@@]67CCCN6C[C@H](F)C7)nc5c3F)N(CC)[C@@H](C)CO4)c12
0.94

# get_value(readout='log10(IC50)', item= C#Cc1c(F)ccc2cc(O)cc(-c3nc4c5c(nc(OC[C@@]67CCCN6C[C@H](F)C7)nc5c3F)N3CC=CC[C@H]3CO4)c12 )
1.69

// query log10(IC50) value for entry CCc1c(F)ccc2cc(O)cc(-c3nc4c5c(nc(OC[C@@]67CCCN6C[C@H](F)C7)nc5c3F)N[C@@H](CO)CO4)c12
3.52
